experimental.setup: in isobutanol, 293.15 K

smi: O=C(O)Cc1ccccc1Cl
solubility (mole fraction): 0.256

---

experimental.setup: in n-butanol, 273.15 K

smi: O=C(O)Cc1ccccc1Cl
solubility (mole fraction): 0.142

---

experimental.setup: in ethylbenzene, 308.15 K

smi: O=C(O)Cc1ccccc1Cl
solubility (mole fraction): 0.106

---

experimental.setup: in toluene, 273.15 K
Attribute: solubility (mole fraction)

smi: O=C(O)Cc1ccccc1Cl
solubility (mole fraction): 0.0241
//
smi: N=C(Nc1ccccc1)Nc1ccccc1
solubility (mole fraction): 0.00134

---

experimental.setup: in ethyl acetate, 308.15 K

smi: O=C(O)Cc1ccccc1Cl
solubility (mole fraction): 0.342
